Km values by entry
- experimental-details: enzyme kinetic measurements with purified protein
- Assay type: biochemical
- assay-context: 0-1280 uM substrate, read-out: Km Fenoxaprop
Quick note: number first, unit second.

INSERT INTO measurements (molecule, measurement_name, reported_measurement) VALUES
  ('MON-HT53: engineered oxygenase protein, amino acid sequence SEQ ID NO:7 (protein) MHAALSPLSQRFERIAVQPLTGVLGAEITGVDLREPLSDSTWNEILDAFHTYQVIYFPGQAITNEQHIAFSRRFGPVDPVPLLKSIEGYPEVQMIRREANESGRVIGDDWHSDSTFLDAPPAAVVMRAIDVPEHGGDTGFLSMYTAYDALSDGLKKLISGLNVVHSATRVFGSLYQAQNRRFSNTSVKVMDVDAGDRETVHPLVVTHPGSGRKGLYVNQVYCQRIEGMSEKESEPLLSFLFAHATKPEFTCRVRWKKDQVLVWDNLCTMHYAINDYHGQTRILHRTTVGGVRPAR', 'Km', '1100 µM');

Lab note: next molecule to report on.
Prompt: Given MON-HT54: engineered oxygenase protein, amino acid sequence SEQ ID NO:9 (protein) MHAALSPLSQRFERIAVQPLTGVLGAEITGVDLREPLDDSTWNEILDAFHTYQVIYFPGQAITNEQHIAFSRRFGPVDPVPLLKSIEGYPEVQMIRREANESGRVLGDDWHTDSTFLDAPPAAVVMRAIDVPEHGGDTGFLSMYTAYDALSDGLKKLISGLNVVHSATRVFGSLYQAQNRRFSNTSVKVMDVADGDRETVHPLVVTHPGSGRKGLYVNQVYCQRIEGMSEKESEPLLSFLFAHATKPEFTCRVRWKKDQVVVWDNLCTMHYAINDYHGQTRILHRTTVGGVRPAR , state its recorded Km.
Response: 2100 µM
